The origin of these recorded values is patent US20230002503A1.

In this section we review reported EC50 values for a set of binders.
Tested System: T1, murine CAIX on CHO cells (CHO-mCAIX) (mouse, UniProt Q8VHB5 32-437)
T1 construct: whole, on cells; also called mouse CAIX
T1 sequence (Q8VHB5 32-437): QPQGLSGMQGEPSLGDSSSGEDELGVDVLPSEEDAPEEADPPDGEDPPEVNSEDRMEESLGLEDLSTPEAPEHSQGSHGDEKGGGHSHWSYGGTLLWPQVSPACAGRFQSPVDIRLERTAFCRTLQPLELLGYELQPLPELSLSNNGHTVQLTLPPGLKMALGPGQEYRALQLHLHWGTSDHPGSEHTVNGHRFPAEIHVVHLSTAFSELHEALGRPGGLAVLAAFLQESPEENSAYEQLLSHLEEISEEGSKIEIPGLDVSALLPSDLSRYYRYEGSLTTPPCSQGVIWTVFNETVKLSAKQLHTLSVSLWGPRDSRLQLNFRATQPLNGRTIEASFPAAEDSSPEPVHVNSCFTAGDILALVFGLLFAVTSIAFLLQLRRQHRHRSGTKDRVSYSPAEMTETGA
Test Summary: flow cytometry on CHO-mCAIX cells
I only need the number, in nM, no unit after it.

Some binders with known EC50 results, for comparison:
Binder	Unit Abbreviation	EC50
H-YE-05 (Fc fusion, also called CAIX nanobody H-YE-05; not shown: human IgG1 Fc segment) QVQLQESGGGLVQPGGSRRLSCAASGNSVNIFSFAAVAWYRQAPGKQRELVAVITTTGGTKYSDSVKGRFTISRDSAKNTVLLQMNSLKPEDTAVYYCNADYLQDYWGQGTQVTVSS	nM	31.7
Hu-H-YE-05-D3 (Fc fusion, also called humanized recombinant antibody from H-YE-05; not shown: human IgG1 Fc segment) EVQLLESGGGLVQPGGSLRLSCAASGNSVNIFSFAAMSWYRQAPGKGLELVAVITTTGGTKYSDSVKGRFTISRDNSKNTLYLQMNSLRAEDTAVYYCNADYLQDYWGQGTQVTVSS	nM	20.8
Hu-H-YE-32-D6 (Fc fusion, also called humanized antibody from H-YE-32; not shown: human IgG1 Fc segment) QVQLVESGGGLVQPGGSLRLSCSASGGARNIFSFAAMAWYRQAPGKGLELVAVITSAGGTQYSSSVKGRFTISRDNSKKTLYLQMNSLRAEDTAVYYCNADYYQDYWGQGTQVTVSS	nM	59.6
Hu-H-YE-32-D5 (Fc fusion, T0013 prints the label as Hu-H-YB-32-D5; also called Hu-H-YB-32-D5; humanized antibody from H-YE-32; not shown: human IgG1 Fc segment) QVQLVESGGGLVQPGGSLRLSCSASGGARNIFSFAAMHWYRQAPGKGLELVAVITSAGGTYYADSVKGRFTISRDNSKKTLYLQMNSLRAEDTAVYYCNADYYQDYWGQGTQVTVSS	nM	552
Hu-H-YE-23-D2 (Fc fusion, T0013 prints the label as Hu-H-YB-23-D2; also called Hu-H-YB-23-D2; humanized recombinant antibody from H-YE-23; not shown: human IgG1 Fc segment) QVQLVESGGGLVQPGGSLRLSCSASGNSANIFSFASVAWYRQAPGKGLELVSVITSAGGTKYSDSVKGRFTISRDNSKNTLYLQMNSLRAEDTAVYYCNVDYLQDYWGQGTLVTVSS	nM	43.7
H-YE-23 (Fc fusion, also called CAIX nanobody H-YE-23; WYE-23; not shown: human IgG1 Fc segment) QVQLQESGGGLVQPGGSLRLSCAASGNSANIFSFASVAWYRQAPGKQRELVAVITSAGGTKYSDSVKGRFTISRDNAKNTILLQMNSLKPEDTAVYYCNVDYLQDYWGQGTQVTVSS	nM	38.1
Hu-H-YE-05-D4 (Fc fusion, also called humanized recombinant antibody from H-YE-05; not shown: human IgG1 Fc segment) EVQLLESGGGLVQPGGSRRLSCAASGNSVNIFSFAAVAWYRQAPGKQRELVAVITTTGGTKYSDSVKGRFTISRDSSKNTVYLQMNSLRAEDTAVYYCNADYLQDYWGQGTQVTVSS	nM	58.8

Here is the next item to consider.
For the binder shown here, H-YE-32 (Fc fusion, also called CAIX nanobody H-YE-32; not shown: human IgG1 Fc segment) QVQLQESGGGLVQPGGSLRLSCAASGGARNIFSFAAMAWYRQAPGKQRELVAVITSAGGTQYSSSVKGRFTISRDNAKKTVLLQMNSLKPEDTAVYYCNADYYQDYWGQGTQVTVSS , give the reported EC50. 34.1
